System: Enterococcus faecium X66
EXPERIMENT DESCRIPTION: MIC, standard agar-dilution assay
Assay type: cell-based
MEASUREMENT LABEL: MIC (µg/mL)
Provide the reading as a plain figure in µg/mL.

Challenge: Report MIC for `CCCCCCC(=O)N[C@@]1(C)C[C@H](O[C@H]2[C@H](Oc3c4cc5cc3Oc3ccc(cc3Cl)[C@@H](O)[C@@H](NC(=O)[C@@H](CC(C)C)NC)C(=O)N[C@@H](CC(N)=O)C(=O)N[C@H]5C(=O)N[C@H]3C(=O)N[C@H](C(=O)N[C@H](C(=O)O)c5cc(O)cc(O)c5-c5cc3ccc5O)[C@H](O[C@H]3C[C@](C)(N)[C@@H](O)[C@H](C)O3)c3ccc(cc3)O4)O[C@H](CO)[C@@H](O)[C@@H]2O)O[C@@H](C)[C@@H]1O`
Response given: 2

Challenge: Report MIC for CCCCCNC1(C)CC(OC2c3ccc(cc3)Oc3cc4cc(c3O)Oc3ccc(cc3Cl)C(O)C(NC(=O)C(CC(C)C)NC)C(=O)NC(CC(N)=O)C(=O)NC4C(=O)NC3C(=O)NC2C(=O)NC(C(=O)O)c2cc(O)cc(O)c2-c2cc3ccc2O)OC(C)C1O (stereo not drawn)
Response given: 8

Challenge: Give the reported value of MIC for this record: `CN[C@H](CC(C)C)C(=O)N[C@H]1C(=O)N[C@@H](CC(N)=O)C(=O)N[C@H]2C(=O)N[C@H]3C(=O)N[C@H](C(=O)N[C@H](C(=O)O)c4cc(O)cc(O)c4-c4cc3ccc4O)[C@H](O[C@H]3C[C@](C)(N)[C@@H](O)[C@H](C)O3)c3ccc(c(Cl)c3)Oc3cc2cc(c3O[C@@H]2O[C@H](CO)[C@@H](O)[C@H](O)[C@H]2O[C@H]2C[C@](C)(NCCc3ccccc3)[C@@H](O)[C@H](C)O2)Oc2ccc(cc2Cl)[C@H]1O`
Response given: 1

###

System: vancomycin-resistant (Vanco^r) E. faecium and E. faecalis
EXPERIMENT DESCRIPTION: Susceptibility of vancomycin-resistant enterococci, agar-dilution MIC
Assay type: cell-based
MEASUREMENT LABEL: Ratio (mean MIC vancomycin-resistant strains / mean MIC vancomycin-susceptible strains)
Just the number, please, no unit after it.

Challenge: Look up and state reported Ratio (mean MIC vancomycin-resistant strains / mean MIC vancomycin-susceptible strains) for CCN(CC)c1ccc(CNC2(C)CC(OC3C(Oc4c5cc6cc4Oc4ccc(cc4Cl)C(OC4CC(C)(N)C(O)C(C)O4)C4NC(=O)C(NC(=O)C6NC(=O)C(CC(N)=O)NC(=O)C(NC(=O)C(CC(C)C)NC)C(O)c6ccc(c(Cl)c6)O5)c5ccc(O)c(c5)-c5c(O)cc(O)cc5C(C(=O)O)NC4=O)OC(CO)C(O)C3O)OC(C)C2O)cc1 (stereo not drawn) [Compound 56]
Response given: 7.0

Challenge: Specify measured Ratio (mean MIC vancomycin-resistant strains / mean MIC vancomycin-susceptible strains) for CNC(CC(C)C)C(=O)NC1C(=O)NC(CC(N)=O)C(=O)NC2C(=O)NC3C(=O)NC(C(=O)NC(C(=O)O)c4cc(O)cc(O)c4-c4cc3ccc4O)C(OC3CC(C)(N)C(O)C(C)O3)c3ccc(c(Cl)c3)Oc3cc2cc(c3OC2OC(CO)C(O)C(O)C2OC2CC(C)(NCc3ccc(Br)cc3)C(O)C(C)O2)Oc2ccc(cc2Cl)C1O (stereo not drawn) [Compound 58] .
Response given: 4.6

Challenge: Identify Ratio (mean MIC vancomycin-resistant strains / mean MIC vancomycin-susceptible strains) associated with the molecule CNC(CC(C)C)C(=O)NC1C(=O)NC(CC(N)=O)C(=O)NC2C(=O)NC3C(=O)NC(C(=O)NC(C(=O)O)c4cc(O)cc(O)c4-c4cc3ccc4O)C(OC3CC(C)(N)C(O)C(C)O3)c3ccc(c(Cl)c3)Oc3cc2cc(c3OC2OC(CO)C(O)C(O)C2OC2CC(C)(NCc3ccc(Cl)cc3)C(O)C(C)O2)Oc2ccc(cc2Cl)C1O (stereo not drawn) [Compound 60]
Response given: 5.5
